Target: AKT1 (human) (UniProt P31749)
Sequence (P31749 whole entry, looked up): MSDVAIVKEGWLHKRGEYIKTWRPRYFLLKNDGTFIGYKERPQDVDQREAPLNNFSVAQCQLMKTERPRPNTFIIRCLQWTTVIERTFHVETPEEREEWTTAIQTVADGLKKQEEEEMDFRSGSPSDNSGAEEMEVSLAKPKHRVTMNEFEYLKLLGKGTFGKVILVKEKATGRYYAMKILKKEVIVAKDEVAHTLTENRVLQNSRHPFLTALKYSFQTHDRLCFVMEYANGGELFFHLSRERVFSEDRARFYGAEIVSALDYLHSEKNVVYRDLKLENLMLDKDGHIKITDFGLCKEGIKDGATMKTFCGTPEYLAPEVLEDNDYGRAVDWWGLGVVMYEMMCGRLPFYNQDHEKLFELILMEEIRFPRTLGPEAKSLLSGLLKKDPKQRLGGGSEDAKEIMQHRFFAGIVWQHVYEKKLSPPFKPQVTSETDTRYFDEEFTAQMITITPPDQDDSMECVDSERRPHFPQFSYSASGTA
Assay: radiometric filter-binding kinase assay, Kinase HotSpot
Conditions: compound 0.5 µM; ATP 10 µM
In this section we review reported residual activity values for a set of compounds.
reported metric: residual activity

chem smiles | measurement
N#C/C(=C\c1ccc(O)c(O)c1)C(=O)NCc1ccccc1 | 101%
CCCCc1c(-c2ccc(OC)cc2)[nH]c2nccnc12 | 113%
COc1ccc(S(=O)(=O)N(CCO)c2ccccc2CN(C)C/C=C/c2ccc(Cl)cc2)cc1 | 106%
Cc1cncc2cccc(S(=O)(=O)N3CCCN(C(=O)CN)C[C@H]3C)c12 | 104%
Fc1ccc(-c2nc3n(c2-c2ccncc2)CCS3)cc1 | 105%
O=C1NC(=O)c2c1c1c3ccccc3[nH]c1n1cncc21 | 102%
CN(C)S(=O)(=O)c1ccc2c(c1)/C(=C/c1cc3c([nH]1)CCCC3)C(=O)N2 | 107%
COc1cc2ncnc(Nc3ccc(OCc4ccccc4)cc3)c2cc1OC | 103%
COc1ccc(Cl)cc1NC(=O)Nc1cc(C)nc2ccccc12 | 95.8%
O=C1c2ccccc2-c2nc3nnnn3nc21 | 79.7%
O=C1C(Cl)=C(N2C(=O)CCC2=O)C(=O)c2ccccc21 | 103%
COc1cc(Nc2c(C#N)cnc3cc(OCCCN4CCN(C)CC4)c(OC)cc23)c(Cl)cc1Cl | 94.4%
Cc1nc(-c2ccccc2)c(-c2ccncc2)o1 | 102%
COc1ccc2c(c1)c(C1=C(c3c[nH]c4ccccc34)C(=O)NC1=O)cn2CCCN(C)C | 99%
COc1ccc(C(=O)Nc2sc3c(c2C(N)=O)CCCC3)cc1OC | 99.7%
Cc1cccc(-c2nc(C(C)(C)C)[nH]c2-c2ccc3c(c2)OCO3)n1 | 94.6%
O=C1Nc2ccc(Br)cc2/C1=C\c1cc2c([nH]1)CCCC2 | 99.8%
C[C@@H]1CCN(C(=O)CC#N)C[C@@H]1N(C)c1ncnc2[nH]ccc12 | 90.3%
CN(C)c1ccc(/C=C2\C(=O)Nc3ccccc32)cc1 | 101%
COc1cc2ncnc(Nc3ccc(Oc4ccccc4)cc3)c2cc1OC | 107%
Cn1c2ccccc2c2c3c(c4c5ccccc5n(CCC#N)c4c21)CNC3=O | 108%
CO[C@@H]1[C@H](N(C)C(=O)c2ccccc2)C[C@H]2O[C@]1(C)n1c3ccccc3c3c4c(c5c6ccccc6n2c5c31)C(=O)NC4 | 81.3%
